Here the recorded S is given for each entry.
# Tested on: A-549 cells
# Measurement notes: Cell cycle distribution by flow cytometry
# Assay type: cell-based, human
# Conditions used: A-549, 24 h, 75 μM
Value kind: S (%)

{"Compound": "COC(=O)[C@H](Cc1ccc(O)cc1)NC(=O)COc1cc(/C=C\\c2cc(OC)c(OC)c(OC)c2)ccc1OC", "Observed measurement": 18}
{"Compound": "COc1ccc(/C=C\\c2cc(OC)c(OC)c(OC)c2)cc1OCC(=O)N1CCC[C@H]1C(=O)O", "Observed measurement": 12}
{"Compound": "COC(=O)[C@@H](NC(=O)COc1cc(/C=C\\c2cc(OC)c(OC)c(OC)c2)ccc1OC)C(C)O (some centres unmarked)", "Observed measurement": 18}
{"Compound": "COC(=O)[C@@H](NC(=O)COc1cc(/C=C\\c2cc(OC)c(OC)c(OC)c2)ccc1OC)C(C)C", "Observed measurement": 14}
{"Compound": "COC(=O)[C@H](CO)NC(=O)COc1cc(/C=C\\c2cc(OC)c(OC)c(OC)c2)ccc1OC", "Observed measurement": 17}
{"Compound": "COC(=O)[C@H]1CCCN1C(=O)COc1cc(/C=C\\c2cc(OC)c(OC)c(OC)c2)ccc1OC", "Observed measurement": 14}
{"Compound": "COc1ccc(/C=C\\c2cc(OC)c(OC)c(OC)c2)cc1OCC(=O)N1CCC[C@@H]1C(=O)O", "Observed measurement": 14}
{"Compound": "COc1ccc(/C=C\\c2cc(OC)c(OC)c(OC)c2)cc1OCC(=O)N[C@@H](CCSC)C(=O)O", "Observed measurement": 11}

Origin of measurements: paper PMC7037732
